Would you mind telling me the reported MIC of each entry?
System: Acinetobacter baumannii
method summary: Antibacterial activity against multidrug-resistant Acinetobacter baumannii K55-13 producing oxcillinase-24 cultured in MHB medium assessed as reduction in bacterial growth incubated for 24 hrs by microdilution susceptibility test
Assay type: functional
run parameters: K55-13, 24 h

| given smiles | tgt | measured property | obs value |
| --- | --- | --- | --- |
| NCCNCC(CN)(Cc1cc(Br)cc(Br)c1)Cc1cc(Br)cc(Br)c1 | Acinetobacter baumannii | MIC | 8 µg/mL |
| NCCNCC(CN)(Cc1ccccc1Br)Cc1ccccc1Br | Acinetobacter baumannii | MIC | 16 µg/mL |
| NCCNCC(CN)(Cc1ccc(F)c2ccccc12)Cc1ccc(F)c2ccccc12 | Acinetobacter baumannii | MIC | 16 µg/mL |

Give MIC for each listed item.
1. NCCNC(=O)C(CN)(Cc1cc(C(F)(F)F)cc(C(F)(F)F)c1)Cc1cc(C(F)(F)F)cc(C(F)(F)F)c1
2. N=C(N)NCCNC(=O)C(CNC(=N)N)(Cc1cc(C(F)(F)F)cc(C(F)(F)F)c1)Cc1cc(C(F)(F)F)cc(C(F)(F)F)c1
3. NCCNC(=O)C(CN)(Cc1cc(Br)cc(Br)c1)Cc1cc(Br)cc(Br)c1
4. N=C(N)NCCNC(=O)C(CNC(=N)N)(Cc1cc(Br)cc(Br)c1)Cc1cc(Br)cc(Br)c1
5. N#CC(Cc1cc(C(F)(F)F)cc(C(F)(F)F)c1)(Cc1cc(C(F)(F)F)cc(C(F)(F)F)c1)C(=O)NCCN

Response:
16 µg/mL
> 32 µg/mL
16 µg/mL
16 µg/mL
> 32 µg/mL

###

Test system: Staphylococcus aureus
method summary: Antibacterial activity against multidrug-resistant Staphylococcus aureus N315 cultured in MHB medium assessed as reduction in bacterial growth incubated for 24 hrs by microdilution susceptibility test
Assay type: functional
run parameters: N315, 24 h
Answer each item with its documented MIC.

| given smiles | MIC |
| --- | --- |
| NCCNC(=O)C(CN)(Cc1ccccc1C(F)(F)F)Cc1ccccc1C(F)(F)F | > 32 µg/mL |

Fill in MIC for each of the 8 compounds listed.
1. NCCNC(=O)C(CN)(Cc1ccc(F)c2ccccc12)Cc1ccc(F)c2ccccc12
2. NCCNCC(CN)(Cc1cc(C(F)(F)F)cc(C(F)(F)F)c1)Cc1cc(C(F)(F)F)cc(C(F)(F)F)c1
3. NCCNC(=O)C(CN)(Cc1ccc(C(F)(F)F)cc1)Cc1ccc(C(F)(F)F)cc1
4. NCCNCC(CN)(Cc1ccc(F)c2ccccc12)Cc1ccc(F)c2ccccc12
5. N=C(N)NCCNC(=O)C(CNC(=N)N)(Cc1ccc(F)c2ccccc12)Cc1ccc(F)c2ccccc12
6. NCCNC(=O)C(CN)(Cc1cc(C(F)(F)F)cc(C(F)(F)F)c1)Cc1cc(C(F)(F)F)cc(C(F)(F)F)c1
7. NCCNC(=O)C(CN)(Cc1cc(Br)cc(Br)c1)Cc1cc(Br)cc(Br)c1
8. N=C(N)NCCNC(=O)C(CNC(=N)N)(Cc1cc(C(F)(F)F)cc(C(F)(F)F)c1)Cc1cc(C(F)(F)F)cc(C(F)(F)F)c1

Response:
["16 µg/mL", "8 µg/mL", "> 32 µg/mL", "4 µg/mL", "4 µg/mL", "16 µg/mL", "8 µg/mL", "4 µg/mL"]
